Where these numbers come from: patent US20180282397A1

# TARGET_ENTITY: T1, H-Ras(G12V)-GTP (Homo sapiens (Human), UniProt P01112 1-166)
# T1 construct: also called H-Ras(G12V)-GppNHp; active H-Ras(G12V); not shown: avitag and His tag at the 5' (N-terminal) end
# PROCEDURE_SUMMARY: SPR (Biacore T100), H-Ras(G12V) on a streptavidin chip exchanged with GppNHp, maltose binding protein-intrabody fusion injected [e]
pKd: −log10 of the molar value.
ENDPOINT_LABEL: pKd

- BINDER: "RasIn1 maltose binding protein fusion (designed binder, not shown: large carriers) MLEVKEASPTSIQISWGPVFSAYSRYYRITYGETGGNSPVQEFTVPGSKSAATISGLKPGVDYTITVYAVTFRWPMPRLVRPISINYRT"
  ENDPOINT_LABEL: "pKd"
  READOUT_NUMBER: 5.70
